These data points were gathered from PubChem BioAssay (NCI).

Tested on: SF-539 CNS
TEST: NCI tumour cell line growth inhibition, 48 h
Returns one of t or f; t when TGI is >= 40 µM.

Query: Confirm if TGI reported for the compound NNC(=O)N/N=C1\CN(c2ccc(Cl)cc2Cl)C(=O)C(=O)C1c1nc2ccccc2o1 (configuration not stated) is 40 µM or above.
Response: t

Query: Confirm if TGI reported for the compound Cc1ccc(-n2cc(-c3ccc(Cl)cc3)c3c(=N)n(N)cnc32)cc1 is 40 µM or above.
Response: f

Query: Confirm if TGI reported for the compound O=C1CNN=C(Cn2nc(-c3ccccc3)c3ccccc3c2=O)N1 is 40 µM or above.
Response: t

Query: Confirm if TGI reported for the compound OCCCCC#Cc1ccccc1C#Cc1ccc(C(F)(F)F)cc1 is 40 µM or above.
Response: f

Query: Confirm if TGI reported for the compound OCC#Cc1ccccc1C#Cc1ccc(C#Cc2ccccc2)cc1 is 40 µM or above.
Response: t

Query: Confirm if TGI reported for the compound Cn1c(=O)c2c(nc(N/N=C3/SCC(=O)N3Cc3ccccc3)n2C)n(C)c1=O is 40 µM or above.
Response: t

Query: Confirm if TGI reported for the compound COc1cccc(N=NN2CCCC2)c1 is 40 µM or above.
Response: t

Query: Confirm if TGI reported for the compound C=CCN1C(=O)CC(=O)N(NC2=NNC3(C(=O)N2)c2ccccc2-c2ccccc23)C1=S is 40 µM or above.
Response: t

Query: Confirm if TGI reported for the compound COc1ccc(/C(C)=C(\c2ccc(Cl)cc2)c2ccc(OCCN3CCCCCC3)cc2)cc1F is 40 µM or above.
Response: f

Query: Confirm if TGI reported for the compound c1cncc([O][Ge]([O]c2cccnc2)([O]c2cccnc2)[O]c2cccnc2)c1 is 40 µM or above.
Response: t

Query: Confirm if TGI reported for the compound [Cl-].[Gd+3].[O-]/N=C(\c1ccccc1)c1ccccn1.[O-]/N=C(\c1ccccc1)c1ccccn1.[O-]/N=C(\c1ccccc1)c1ccccn1 is 40 µM or above.
Response: t

Query: Confirm if TGI reported for the compound COc1cc(CCc2ccc(OC(C)=O)cc2)cc(OC)c1OC is 40 µM or above.
Response: t

Query: Confirm if TGI reported for the compound CCSc1ncc(Br)c(Sc2nc(N)nc3nc[nH]c23)n1 is 40 µM or above.
Response: f

Query: Confirm if TGI reported for the compound CC1CCCN1CCCOC(=O)c1ccc(OC2C=CCCC2)cc1 (configuration not stated) is 40 µM or above.
Response: t

Query: Confirm if TGI reported for the compound CCCCC[C@@H](C/C=C/CCC(=O)NC/C(=C/Cl)[C@H]1C(=O)C(C)(C)C(=O)[C@@H](C)[C@@]1(C)O)OC is 40 µM or above.
Response: f

Query: Confirm if TGI reported for the compound CC[C@@]12CCC(=S)N(CCSc3ccccc3)[C@@H]1c1c(n(S(=O)(=O)c3ccc(OC)cc3)c3ccccc13)CC2 is 40 µM or above.
Response: t

Query: Confirm if TGI reported for the compound O=c1[nH]c2ccc([N+](=O)[O-])cc2nc1/C(=N/Nc1ccccc1)C(O)c1ccco1 (configuration not stated) is 40 µM or above.
Response: t

====

Test system: UO-31 renal
TEST: NCI tumour cell line growth inhibition, 48 h
RECORDED_METRIC: TGI

Query: Item O=c1nc2[nH]c3c(-c4n[nH]c(=O)[nH]c4=O)cccc3c2n[nH]1 has what recorded TGI?
Response: > 100 µM

Query: Item CCOC(=O)C1CCC(=O)N1C(=O)c1ccc(Cl)cc1 (stereo not drawn) has what recorded TGI?
Response: > 100 µM

Query: Item COc1ccc(/C=N/Nc2nnc3c(n2)c2ccccc2c2nn(-c4ccccc4Cl)nc23)cc1 has what recorded TGI?
Response: > 100 µM
